MEASURED_ON: nLuc-AFF (6*-50* duplication, 6-aa linker AAGASS) (UniProt P03069 226-281)
Sequence (P03069 226-281): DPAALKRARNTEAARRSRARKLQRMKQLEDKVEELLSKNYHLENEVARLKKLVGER
ASSAY_INFO: fluorescence anisotropy
RECORDED_METRIC: Kd (nM)
Give a bare numeral; the unit nM is implied.

# Kd lookup, item AP-1 duplex (dsDNA) DNA 1: AGTGGAGATGACTCATCTCGTGC DNA 2: GCACGAGATGAGTCATCTCCACT
11.6
